Molecular target: T1, GST-FLJ00011 PDZ domain 1 (Homo sapiens (Human)), Q9H5P4
T1 chain: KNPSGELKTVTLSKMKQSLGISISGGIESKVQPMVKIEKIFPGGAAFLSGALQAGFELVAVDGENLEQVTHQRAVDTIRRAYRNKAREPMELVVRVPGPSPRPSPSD
Experiment: G' assay; further: key of the grades not given here
binders and their reported Classification
Experimental Endpoint: Classification (A450 class)

[
  {
    "Binder": "ILNSIQVMRAQMNQIQSVEV (modifications not checked) [ephrin B2]",
    "Unit Text": "A450 class",
    "Observed": 2
  },
  {
    "Binder": "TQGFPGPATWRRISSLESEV (modifications not checked) [NMDA Glutamate Receptor 2C (cysteine-free)]",
    "Unit Text": "A450 class",
    "Observed": 2
  },
  {
    "Binder": "KENDYESISDLQQGRDITRL (modifications not checked) [PAG]",
    "Unit Text": "A450 class",
    "Observed": 3
  },
  {
    "Binder": "AWDDSARAAGGQGLHVTAL (modifications not checked) [LPAP]",
    "Unit Text": "A450 class",
    "Observed": 4
  },
  {
    "Binder": "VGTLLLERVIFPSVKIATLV (modifications not checked) [AdenoE4 typ9]",
    "Unit Text": "A450 class",
    "Observed": 1
  },
  {
    "Binder": "GTSDMKDLVGNIEQNEHSVI (modifications not checked) [Mannose Receptor]",
    "Unit Text": "A450 class",
    "Observed": 1
  }
]

// provenance: patent US20050282743A1
